tested on: MCF7; assay: NCI tumour cell line growth inhibition, 48 h
Calls of active or inactive are those of the source. Rule as the data show it: active = GI50 up to about 1.1 µM and inactive = higher.
Output constraint: value belongs to active, inactive

Please review the entries below; each comes with its answer.
{"columns": ["molecule", "classAssignment"],
 "data": [
  ["Cc1nc2cc(/N=N/c3c(C)noc3C)ccc2[nH]1", "inactive"],
  ["CC(C)(C)COC1C2(OCCO2)C2CCC1(C)C2(C)C (centres undefined)", "inactive"],
  ["CN(C)C(=O)OC(Cn1cncn1)(Cn1cncn1)c1ccc(Cl)cc1Cl", "inactive"],
  ["CS/C1=C(\\c2ccc(C)cc2)N(c2ccccc2)C(=O)C(=O)N(c2ccccc2)/C(c2ccc(C)cc2)=C(/SC)SS1", "inactive"],
  ["CCCC1NC(=O)C(CC(C)C)NC(=O)c2cccc(n2)C(=O)NC(CC(C)C)C(=O)NC(CCC)C(=O)NC(C(=O)OC)CCCCNC1=O (centres undefined)", "inactive"]
]}

[in] Could you check what this test reported for "O=[N+]([O-])C(=C/c1cccc2ccccc12)/C(=C\c1cccc2ccccc12)[N+](=O)[O-]" ?
[out] inactive

[in] Could you check what this test reported for "CCCCC1=NNC(=O)C1" ?
[out] inactive

[in] Could you check what this test reported for CC(O)=NC(Cc1ccc2ccccc2c1)C(O)=NC(Cc1ccc(Cl)cc1)C(O)=NC(Cc1c[nH]c2ccccc12)C(O)=NC(CO)C(O)=NC(Cc1ccc(O)cc1)C(O)=NC(CCCN=C(N)N)C(O)=NC(CC(C)C)C(O)=NC(CCCN=C(N)N)C(=O)N1CCCC1C(O)=NC(C)C(=N)O (centres undefined) ?
[out] inactive

[in] Could you check what this test reported for CC(CC(C)[C@H]1CCC2[C@H]3C(CC[C@@]21C)[C@@]1(C)CCC(O)C[C@H]1C[C@@H]3O)C(=O)O (some centres undefined) ?
[out] inactive

[in] Could you check what this test reported for "COc1cc2c(c(OC)c1)/C(=C/Sc1ccccc1)C(=O)N(C(C)(C)C)C2" ?
[out] inactive

[in] Could you check what this test reported for "O=C(NN1C(=O)/C(=C/c2ccc(Cl)cc2)N=C1c1ccccc1)c1c(Cl)c(Cl)c(Cl)c(Cl)c1-c1nc2ccccc2[nH]1" ?
[out] inactive

[in] Could you check what this test reported for CN(C)C1COC2Cc3ccccc3C1O2 (centres undefined) ?
[out] inactive

[in] Could you check what this test reported for COc1ccc(C23OCC(Cc4cc(OC)c(OC)cc42)C3CO)cc1OC (centres undefined) ?
[out] inactive

[in] Could you check what this test reported for "CSC1=N/C(=C\c2ccc(C)cc2)C(=O)N1CN1CCCCC1" ?
[out] inactive

[in] Could you check what this test reported for "Nc1n[n+]2cc(-c3ccccc3)n(CC(=O)c3ccccc3)c2s1" ?
[out] inactive

[in] Could you check what this test reported for "CC[C@@H]1CC[C@@H]2[C@H](CC[C@]3(C)[C@@H](OC(C)=O)CC[C@@H]23)[C@H]1COC(C)=O" ?
[out] inactive

[in] Could you check what this test reported for NC(CCC(=O)O)C(=O)NC(Cc1ccc(N(CCCl)CCCl)cc1)C(=O)O (centres undefined) ?
[out] inactive

[in] Could you check what this test reported for Cc1occc(=O)c1O [MALTOL] ?
[out] inactive

[in] Could you check what this test reported for "CC1=NN(C(=O)c2ccccc2O)C(=O)/C1=C/c1ccc([N+](=O)[O-])cc1" ?
[out] active
